Experiment: Kinetic solubility of compound at pH 7.4 by shake flask method
Assay type: physicochemical
Conditions: buffer, read-out: Kinetic_solubility
recorded-endpoint: solubility kinetic (µM)
State the answer as a number, implicitly in µM.

What measured solubility kinetic goes with "O=C(O)c1cccc(-c2cnc(Nc3ccccc3F)o2)c1" ?
56
